# Test system: Mus musculus
# ASSAY_PROCEDURE: Ratio of effective dose of compound producing agonistic activity in presence and absence of benzylidenenaltrexone (25 pmol) upon intrathecal administration in mouse tail flick assay
# Format: functional
REPORTED_METRIC: ED50 Ratio
Answer with a number only.

cpd_smiles=CN(C(=O)Cc1ccc(Cl)c(Cl)c1)[C@H](CN1CCCC1)c1cccc(NC(=O)CNC(=O)CNC(=O)CCC(=O)NCC(=O)NCC(=O)Nc2cccc3c4c([nH]c23)[C@@H]2Oc3c(O)ccc5c3[C@@]23CCN(CC2CC2)[C@H](C5)[C@]3(O)C4)c1 assayed_target="Mus musculus" reported_metric="ED50 Ratio" numeric_readout=3

Kindly consider the entry below.
In: For the compound CN(C(=O)Cc1ccc(Cl)c(Cl)c1)[C@H](CN1CCCC1)c1cccc(NC(=O)CNC(=O)CCC(=O)NCC(=O)Nc2cccc3c4c([nH]c23)[C@@H]2Oc3c(O)ccc5c3[C@@]23CCN(CC2CC2)[C@H](C5)[C@]3(O)C4)c1 , what ED50 Ratio is on record?
Out: 2.1

----------
# ASSAYED_TARGET: Opioid receptors; delta & kappa (Homo sapiens, UniProt P41145+P41143)
# ASSAY_PROCEDURE: Inhibition of [3H]U-69593 binding to delta and kappa opioid receptors expressed in HEK 293 cells
# Assay type: cell-based
# TEST_SETTINGS: hek293
REPORTED_METRIC: Ki (µM)
Entry rule: numbers only, all in µM.

cpd_smiles=CNC(=O)CNC(=O)CNC(=O)CCC(=O)NCC(=O)NCC(=O)Nc1cccc([C@@H](CN2CCCC2)N(C)C(=O)Cc2ccc(Cl)c(Cl)c2)c1 numeric_readout=0.0239

In: Recorded Ki of CN(C(=O)Cc1ccc(Cl)c(Cl)c1)[C@H](CN1CCCC1)c1cccc(NC(=O)CNC(=O)CNC(=O)CCC(=O)NCC(=O)NCC(=O)Nc2cccc3c4c([nH]c23)[C@@H]2Oc3c(O)ccc5c3[C@@]23CCN(CC2CC2)[C@H](C5)[C@]3(O)C4)c1 , please.
Out: 0.00251

In: Which Ki value is on record for CN(C(=O)Cc1ccc(Cl)c(Cl)c1)[C@H](CN1CCCC1)c1cccc(NC(=O)CNC(=O)CCC(=O)NCC(=O)Nc2cccc3c4c([nH]c23)[C@@H]2Oc3c(O)ccc5c3[C@@]23CCN(CC2CC2)[C@H](C5)[C@]3(O)C4)c1 ?
Out: 0.0019

In: So what does the record say about Ki for CNC(=O)CNC(=O)CCC(=O)NCC(=O)Nc1cccc([C@@H](CN2CCCC2)N(C)C(=O)Cc2ccc(Cl)c(Cl)c2)c1 ?
Out: 0.00675
